# target-under-test: PIK3CB;PIK3CG;PIK3CD;PIK3CA (human)
# test: Inhibition of PIK3CA/PIK3CB/PIK3CD/PIK3CG Kinase Activity
pIC50: −log10 of the molar value.
measured-parameter: pIC50

{"columns": ["compound", "reported-result"],
 "data": [
  ["COc1ccc(CCOC(=O)[C@@H](NC(=O)OCC2c3ccccc3-c3ccccc32)C(C)C)c(Nc2nc3ccccc3nc2NS(=O)(=O)c2cn(C)cn2)c1", 5.74]
]}

[a] COc1ccc(S(=O)(=O)NCCO)c(Nc2nc3ccccc3nc2NS(=O)(=O)CCCS(C)(=O)=O)c1
[b] COc1ccc(CCS(C)(=O)=O)c(Nc2nc3ccccc3nc2NS(=O)(=O)c2ccccc2)c1
[c] CCS(=O)(=O)Nc1nc2ccccc2nc1Nc1cc(OC)ccc1CCS(C)(=O)=O
[d] COc1ccc(CCS(C)(=O)=O)c(Nc2nc3ccccc3nc2NS(=O)(=O)C(C)C)c1
[e] COc1cc(CN2CCN(C)CC2)cc(Nc2nc3ccccc3nc2NS(=O)(=O)c2cccnc2)c1
Sort low-to-high on pIC50, please. List the labels, following the order given in the request.
e, a, d, c, b

----------
# target-under-test: PIK3CB;PIK3CG;PIK3CD;PIK3CA (human)
# test: Inhibition of PIK3CA/PIK3CB/PIK3CD/PIK3CG Kinase Activity
pIC50: −log10 of the molar value.
measured-parameter: pIC50

{"columns": ["compound", "pIC50"],
 "data": [
  ["COc1ccc(CCO)c(Nc2nc3ccccc3nc2NS(=O)(=O)C2CCS(=O)(=O)C2)c1 (stereo unspecified)", 7.07],
  ["COc1ccc(CN2CCN(C)CC2)c(Nc2nc3ccccc3nc2NS(=O)(=O)c2ccc(F)cc2)c1", 6.96],
  ["COc1cc(Nc2nc3ccccc3nc2NS(=O)(=O)c2cn(C)cn2)cc(C(=O)NCCO)c1", 7.00],
  ["COc1ccc(CCO)c(Nc2nc3ccccc3nc2NS(=O)(=O)c2ccc(C)[n+]([O-])c2)c1", 6.97],
  ["COc1ccc(CCS(C)(=O)=O)c(Nc2nc3ccccc3nc2NS(=O)(=O)c2cn(C)cn2)c1", 7.08],
  ["COc1ccc(CCCO)c(Nc2nc3ccccc3nc2NS(=O)(=O)C2CCS(=O)(=O)C2)c1 (stereo unspecified)", 6.89],
  ["COc1ccc(CCCO)c(Nc2nc3ccccc3nc2NS(=O)(=O)c2c(C)noc2C)c1", 6.89],
  ["COc1ccc(CN2CCOCC2)c(Nc2nc3ccccc3nc2NS(=O)(=O)c2cccnc2)c1", 7.14],
  ["COc1ccc(CC2CCN(S(C)(=O)=O)CC2)c(Nc2nc3ccccc3nc2NS(=O)(=O)c2cn(C)cn2)c1", 6.80],
  ["CCCS(=O)(=O)Nc1nc2ccccc2nc1Nc1cc(OC)ccc1CCS(C)(=O)=O", 7.06],
  ["COc1ccc(CC2C[C@H]3CC[C@@H](C2)N3C)c(Nc2nc3ccccc3nc2NS(=O)(=O)c2cn(C)cn2)c1 (stereo partly specified)", 6.96]
]}

----------
# target-under-test: PIK3CB;PIK3CG;PIK3CD;PIK3CA (human)
# test: Inhibition of PIK3CA/PIK3CB/PIK3CD/PIK3CG Kinase Activity
measured-parameter: IC50 (nM)

Please review the following examples before continuing.
{"columns": ["molecule", "target-under-test", "unit-label", "IC50"],
 "data": [
  ["COc1ccc(CCO)c(Nc2nc3ccccc3nc2NS(=O)(=O)c2cn(C)cn2)c1", "PIK3CB;PIK3CG;PIK3CD;PIK3CA (human)", "nM", 48],
  ["COC(=O)c1ccc(OC)cc1Nc1nc2ccccc2nc1NS(=O)(=O)c1cn(C)cn1", "PIK3CB;PIK3CG;PIK3CD;PIK3CA (human)", "nM", 21],
  ["COc1ccc(CCCO)c(Nc2nc3ccccc3nc2NS(=O)(=O)c2cn(C)c(CN(C)C)n2)c1", "PIK3CB;PIK3CG;PIK3CD;PIK3CA (human)", "nM", 28],
  ["COc1ccc(CCCO)c(Nc2nc3ccccc3nc2NS(C)(=O)=O)c1", "PIK3CB;PIK3CG;PIK3CD;PIK3CA (human)", "nM", 64],
  ["COc1ccc(CC2CCCCC2)c(Nc2nc3ccccc3nc2NS(=O)(=O)c2ccc(CN(C)C)cc2)c1", "PIK3CB;PIK3CG;PIK3CD;PIK3CA (human)", "nM", 760],
  ["COc1ccc(CCO)c(Nc2nc3ccccc3nc2NS(=O)(=O)c2ccc(OCCO)cc2)c1", "PIK3CB;PIK3CG;PIK3CD;PIK3CA (human)", "nM", 34],
  ["COc1ccc(CCS(C)(=O)=O)c(Nc2nc3ccccc3nc2NS(=O)(=O)c2c(C)noc2C)c1", "PIK3CB;PIK3CG;PIK3CD;PIK3CA (human)", "nM", 190],
  ["COc1cc(CN(C)C)cc(Nc2nc3ccccc3nc2NS(=O)(=O)c2cn(C)cn2)c1", "PIK3CB;PIK3CG;PIK3CD;PIK3CA (human)", "nM", 1100]
]}

[I] COc1ccc(C(C)C)c(Nc2nc3ccccc3nc2NS(=O)(=O)c2cn(C)cn2)c1
[II] COc1ccc(CCCO)c(Nc2nc3ccccc3nc2NS(=O)(=O)c2cccc(NC(=O)CN(C)C)c2)c1
Looking only at measured IC50, which entry is lower, I or II ? Write down the label of the entry you select.
II
(II: 30 nM, I: 200 nM)
